Quick reference: TGI of the listed items.
System: NCI-H226 lung
Assay: NCI tumour cell line growth inhibition, 48 h
outcomeMeasure: TGI (µM)

>  <molecule>
CC(=O)OC1Oc2ccccc2-c2oc(=O)c(-c3cc4ccc(N(C)C)cc4oc3=O)cc21 (stereo not given)

>  <outcomeMeasure>
TGI

>  <resultUnit>
µM

>  <censoringQualifier>
=

>  <recordedNumber>
28.3

$$$$
>  <molecule>
COc1ccc(CC2Cc3ccccc3CCN2)cc1OC (stereo not given)

>  <outcomeMeasure>
TGI

>  <resultUnit>
µM

>  <censoringQualifier>
>

>  <recordedNumber>
50

$$$$
>  <molecule>
Cc1c2c(cc3c1C(=O)C(=O)C([C@@H](C)CO)=C3O)C(C)(C)CCC2

>  <outcomeMeasure>
TGI

>  <resultUnit>
µM

>  <censoringQualifier>
>

>  <recordedNumber>
100

$$$$
>  <molecule>
O=c1[nH]c2cccc([N+](=O)[O-])c2c(=O)n1-c1ccc(Cl)cc1

>  <outcomeMeasure>
TGI

>  <resultUnit>
µM

>  <censoringQualifier>
=

>  <recordedNumber>
30.1

$$$$
>  <molecule>
CCN(CC)CCN1CC(O)=C(c2nc(-c3ccc(Cl)cc3)cs2)C1=N

>  <outcomeMeasure>
TGI

>  <resultUnit>
µM

>  <censoringQualifier>
=

>  <recordedNumber>
3.88

$$$$

----------
Test system: MOLT-4 leukemia
Experiment: NCI tumour cell line growth inhibition, 48 h; in the data active = GI50 below about 0.43 µM; inactive = the rest
Classes used: label 1 = active, label 0 = inactive

>  <compound>
CC(=O)OC1Oc2ccccc2-c2oc(=O)c(-c3cc4ccc(N(C)C)cc4oc3=O)cc21 (stereo not given)

>  <assignedClass>
label 0

$$$$
>  <compound>
COC(=O)Nc1nc2ccc(Oc3ccc(NC(=O)Nc4ccccc4)cc3)cc2[nH]1

>  <assignedClass>
label 1

$$$$
>  <compound>
Clc1nc(Cl)c2ncn(Cc3cccc(COc4cccc(OCc5cccc(Cn6cnc7c(Cl)nc(Cl)nc76)c5)c4)c3)c2n1

>  <assignedClass>
label 0

$$$$
>  <compound>
O=C(c1cccc(O)c1O)c1cn(Cc2ccc(F)cc2)c2cccc(O)c12

>  <assignedClass>
label 0

$$$$
>  <compound>
COc1ccc(C(=O)COc2cccc(/C=C3\COc4ccc5ccccc5c4C3=O)c2)cc1

>  <assignedClass>
label 0

$$$$
>  <compound>
CCS(=O)(=O)c1ccc(OC)c(Nc2ncc(-c3cccc(OC)c3)o2)c1

>  <assignedClass>
label 0

$$$$
>  <compound>
CCC[CH2][Sn]1([CH2]CCC)[O]C(=O)C(C(C)C)N=Cc2ccccc2[O]1 (stereo not given)

>  <assignedClass>
label 1

$$$$
>  <compound>
COc1cc(C2=NN(C(C)=O)C(c3ccc(OC(C)=O)cc3OC(C)=O)O2)c(OC(C)=O)c2ccccc12 (stereo not given)

>  <assignedClass>
label 0

$$$$
>  <compound>
CCOC(=O)c1c(CN2CCN(c3ccccc3)CC2)n(-c2ccccc2)c2cc(Br)c(O)cc12

>  <assignedClass>
label 0

$$$$
>  <compound>
Cc1ccc(C(=NN=C(N)N)c2ccc(C)cc2)cc1

>  <assignedClass>
label 0

$$$$
>  <compound>
CCN(CC)CCN1CC(O)=C(c2nc(-c3ccc(Cl)cc3)cs2)C1=N

>  <assignedClass>
label 0

$$$$
>  <compound>
NC(N)=NCCCn1c2c(c3ccccc3c1=O)C(=O)c1ccccc1-2

>  <assignedClass>
label 0

$$$$
>  <compound>
O=C(Nc1ccc(Cl)cc1)c1cc(-c2ccc(F)cc2)c2sc(=O)[nH]c2n1

>  <assignedClass>
label 0

$$$$
>  <compound>
CC(C)c1ccc(C(=O)Nc2sc3c(c2C(N)=O)CCC(=O)C3)cc1

>  <assignedClass>
label 0

$$$$
>  <compound>
CCS(=O)(=O)c1ccc(OC)c(Nc2ncc(-c3cccc(C(C)=O)c3)o2)c1

>  <assignedClass>
label 0

$$$$
